All values here come from the supplement of paper PMC9170038.

Test system: MS2 coat protein
Test: apparent KD of MS2 coat protein; designed switch direction (-1 OFF switch, 1 ON switch): 1; higher = weaker reporter binding
Conditions: input ligand: microRNA oligo, concentration not stated
Rule: 1.0 for apparent KD of MS2 coat protein not less than 0.2 µM, 0.0 for anything less.

For orientation, consider the following solved cases.
INSERT INTO measurements (seq, assigned_class) VALUES
  ('AAGAUGGUUGUAGGAUAUCCACCACUGAAGGGUGGAGAAGGGCACUCCAACAUGAGGAUCACCCAUGUACUACAAGUAGCAUCG [Eternabot solution 26] (Eterna round: R96, puzzle: Same State NG 1)', 0.0),
  ('GGUAUCGACACAGGAUAUGCUAUCCUUUGGGUAGCAGAAGGGUGGACAUGAGGAUCACCCAUGUGGGUGCCAGGGCGUGAGCCC [JL SSNG1 1.84] (Eterna round: R96, puzzle: Same State NG 1)', 0.0),
  ('GCCAUCGUAUGAGGAUAUGGCACCGUUUCGGUGCCAGAAGGCAUGUCAAUUGACAUGAGGAUCACCCAUGUAUUAUCGAUGGCA [JL Fiskers NG1ss - 33 mod 6] (Eterna round: R96, puzzle: Same State NG 1)', 1.0);

Is apparent KD of MS2 coat protein at least 0.2 µM? Consider GCGAAGAGGUAAGGAUAUUCAUGGCGUAGACAUGAGGAUCACCCAUGUAGGAGACGAAUUAAAAGGGAGAAGGUACCAGGACGC [AK SSNG2-V2-16] (Eterna round: R96, puzzle: Same State NG 2) 1.0

// query: GUAGCAUACCGAGGAUAUUCAUAUUAAAUUACAUGAGGAUCACCCAUGUAGGCCAAAAGGCCUUGGGAGAAGGCGGAAUGCUAC [Xeonanis - 20 Mod1] (Eterna round: R96, puzzle: Same State NG 2) 0.0

// query: AAAGACAUGGUGCAGGAUAUAUUAAUAGUCACAUGAGGAUCACCCAUGUUCAGAUAUCUGAACGAGUAGAAGGGCGAUGAAAAAA [SameState2 Malc#5] (Eterna round: R96, puzzle: Same State 2) 0.0

// query: CUCAAACAUGAGGAUCACCCAUGUGUUGUCGUGGGAGGAUAUCCCAGUUCGGUGGCGUCGGGAGAAGGCCUAUGUC (Eterna round: R96, puzzle: Same State 1) 0.0

// query: UUCUCACUGGUAGGAUAUGUAGGAUAUGUACAUGAGGAUCACCCAUGUCAGUUAAUGACAGAAGGAUAGAAGGACCACAUCUCU [pwkr ssNG2 2FMN 1F5s.1] (Eterna round: R96, puzzle: Same State NG 2) 0.0

// query: CUCCCAGCGGGAGGAUAUGGUGCCUUGUUGGUGCUAGAAGGUCCAACAUGAGGAUCACCCAUGUGGGAGUGGUUGAGAGACCUC [SS NG10LRO12] (Eterna round: R96, puzzle: Same State NG 1) 0.0
